# ASSAY_OVERVIEW: viability loss with induced miR-34 in A549 – imaging, A549 dox-inducible miR-34, nuclei and caspase counts, primary screen (AID 1347080)
# STUDY_CONDITIONS: A549 miR-34 inducible, Hoechst nuclei count, 48 h; measured here: relative caspase fold change +Dox/-Dox
Provide the recorded fold change for the entries that follow.
Just the number.

According to the records, this compound `COc1cccc(NC(=O)/C=C/c2ccc(Cl)cc2)c1` displays fold change of 1.32

According to the records, this compound `O=C(O)c1c(Sc2ccccc2)c2cc(Cl)ccc2n1Cc1ccc(Cl)cc1` displays fold change of 1.45

According to the records, this compound `COc1ccc(CN2C(=O)C(=O)c3cc(OC(F)(F)F)ccc32)cc1` displays fold change of 1.39

According to the records, this compound `CC(C)(C)OC(=O)Nc1cccc2[nH]ccc12` displays fold change of 0.676

According to the records, this compound `c1cc2c3c(c1)c1c(n3CCNC2)CCCC1` displays fold change of 1.32

According to the records, this compound CCCCC[C@H](O)/C=C/[C@@H]1C(C/C=C\CCCCN(C)C)[C@@H](O)C[C@H]1O (stereo not given in full) displays fold change of 1.02

According to the records, this compound CCCCCCOC(=O)[C@@]1(O)CC2OC1(C)n1c3ccccc3c3c4c(c5c6ccccc6n2c5c31)C(=O)NC4 (stereo not given in full) displays fold change of 1.42

According to the records, this compound `CC(C)OC(=O)CCC/C=C\C[C@@H]1[C@@H](/C=C/[C@H](O)C2Cc3ccccc3C2)[C@@H](F)C[C@@H]1O` displays fold change of 2.25

According to the records, this compound CC1Nc2ccc(Cl)cc2S(=O)(=O)N1 (stereo not given) displays fold change of 0.718

According to the records, this compound `N#C/C(=C\c1ccc(O)c(O)c1)C(=O)NCCCCc1ccccc1` displays fold change of 1.09

----------
# ASSAY_OVERVIEW: viability loss in pontine glioma line – cell-based, SU-DIPG-XIII, MIPE4.0, CellTiter-Glo, qHTS, dose response (AID 1347061);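 further: cells exposed to compound for 48 hours before readout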
# STUDY_CONDITIONS: CellTiter-Glo ATP luminescence
Inconclusive results are not listed. Calls of active or inactive are those of the source. The limit is not given here; nearly all actives have AC50 up to about 37 µM.
One label from this list, please: T = active, F = inactive

Test call for this compound, please: `CC(C)Oc1cc(Nc2nc(N[C@@H](C)c3ccc(F)cn3)ncc2Cl)[nH]n1`
T

Test call for this compound, please: `CNC(=O)c1ccc(-c2cnc3ncc(Cc4ccc5ncccc5c4)n3n2)cc1F`
F

Test call for this compound, please: `CC(C)n1nc(-c2ccc3oc(N)nc3c2)c2c(N)ncnc21`
T

Test call for this compound, please: `Cc1nc2c([nH]1)CCN(C(=O)c1ccc(NC(=O)c3ccccc3-c3ccccc3)cc1)c1ccccc1-2`
F

Test call for this compound, please: `COc1cc2ncnc(Nc3ccc(F)c(Cl)c3)c2cc1NC(=O)/C=C/CN1CCCCC1`
F

Test call for this compound, please: `Nc1cc(C(F)(F)F)c(-c2cc(N3CCOCC3)nc(N3CCOCC3)n2)cn1`
T

Test call for this compound, please: `CCC(=O)NC[C@H](Cc1ccc(OCCc2nc(-c3ccccc3)oc2C)cc1)N/C(C)=C\C(=O)c1ccc(C(F)(F)F)cc1`
F

Test call for this compound, please: `CO/N=C(/C(=O)N[C@@H]1C(=O)N2C(C(=O)O)=C(Cn3ccc(=N)n3CCO)CS[C@H]12)c1csc(N)n1`
F

Test call for this compound, please: N[C@H]1CN(c2c(F)cc3c(=O)c(C(=O)O)cn(C4C[C@H]4F)c3c2Cl)CC12CC2 (some centres undefined)
F
